settings: in n-propanol, 278.15 K
REPORTED_METRIC: solubility (mole fraction)
Numbers only.

Recorded solubility (mole fraction) for "CO[C@@]1(NC(=O)Cc2cccs2)C(=O)N2C(C(=O)O)=C(COC(N)=O)CS[C@@H]21" , please?
0.000209

* * *

conditions: in acetonitrile, 298.15 K
REPORTED_METRIC: solubility (mole fraction)
Numbers only.

Recorded solubility (mole fraction) for "CO[C@@]1(NC(=O)Cc2cccs2)C(=O)N2C(C(=O)O)=C(COC(N)=O)CS[C@@H]21" , please?
0.000621

* * *

details: in acetonitrile, 303.15 K
REPORTED_METRIC: solubility (mole fraction)
One number for each entry.

Recorded solubility (mole fraction) for "CO[C@@]1(NC(=O)Cc2cccs2)C(=O)N2C(C(=O)O)=C(COC(N)=O)CS[C@@H]21" , please?
0.000677
